# Test Method Notes: Acute toxicity in the rat
# Type: in vivo
# Experimental Setup: in vivo, po, single dose
# Procedure: The acute toxicity in the rat of the compound of formula I in hydrochloride salt form was determined with single doses of 1000 mg/kg and 2000 mg/kg orally administered to 5 male and 5 female rats per dose group. Deaths occurred within 1-8 days. The LD50 -value obtained is >1000 mg/kg p.o.
Counter-ions that a name gives are not always drawn.
Assay Readout: LD50

Return reported LD50. Input molecule: C=C[C@]1(C)C[C@@H](OC(=O)CSC(C)(C)CNC(=O)[C@H](N)C(C)C)[C@]2(C)[C@H](C)CC[C@]3(CCC(=O)[C@H]32)[C@@H](C)[C@@H]1O [valnemulin hydrochloride]
> 1000 mg/kg
